These data points were gathered from ChEMBL document CHEMBL4304784.

- ASSAY_TEXT: Cytotoxicity against human SH-SY5Y cells assessed as cell viability at 25 uM incubated for 48 hrs by MTT assay (reference value: 100 +/- 12.00%)
- Assay type: cell-based
- RUN_CONDITIONS: read-out: Activity
Record form. Attribute: viability at 48 h, 25 µM. Fill in for each entry.

Field request: viability at 48 h, 25 µM | item: COc1cc2c(cc1OC)CN(CCCCN1C(=O)CCc3ccccc31)CC2 77 to 84%

What would you report for O=c1oc(-c2ccccc2)nn1CCCCN1CCN(C2CCCCC2)CC1 ? 78 to 105%

What would you report for O=C1CCc2ccccc2N1CCCCN1CCN(c2ccc(F)cc2)CC1 ? 84 to 121%

====

- ASSAY_TEXT: Selectivity ratio of Ki for sigma1 receptor in guinea pig brain membranes to Ki for sigma2 receptor in rat liver membranes
- Assay type: cell membranes
PARAMETER_MEASURED: Ratio Ki
Respond with the number and no other words.

Field request: Ratio Ki | item: O=c1oc(-c2ccccc2)nn1CCCCN1CCN(c2ccc(F)cc2)CC1 0.57

What would you report for O=C1CCc2ccccc2N1CCCCN1CCN(C2CCCCC2)CC1 ? 14

What would you report for O=c1oc(-c2ccccc2)nn1CCCCN1CCC2(CC1)OCc1ccccc12 ? 1.2

What would you report for O=C1CCc2ccccc2N1CCCCN1CCN(c2ccc(F)cc2)CC1 ? 0.76

====

- ASSAY_TEXT: Cytotoxicity against human Hep3B cells assessed as cell viability at 25 uM incubated for 48 hrs by MTT assay relative to control
- Type: cell-based, Hep 3B2
- RUN_CONDITIONS: read-out: Activity
PARAMETER_MEASURED: viability at 48 h, 25 µM (%)
Give the value in % but do not write % after it.

Field request: viability at 48 h, 25 µM | item: Cc1ccc(CN(C)CCCCN2C(=O)CCc3ccccc32)c(C)c1 81

What would you report for O=C1CCc2ccccc2N1CCCCN1CCC2(CC1)OCc1ccccc12 ? 67

What would you report for O=C1CCc2ccccc2N1CCCCN1CCN(C2CCCCC2)CC1 ? 70

What would you report for O=c1oc(-c2ccccc2)nn1CCCCN1CCC2(CC1)OCc1ccccc12 ? 90

What would you report for O=C1CCc2ccccc2N1CCCCN1CCN(c2ccc(F)cc2)CC1 ? 83

What would you report for O=c1oc(-c2ccccc2)nn1CCCCN1CCN(C2CCCCC2)CC1 ? 76

====

Record form. Attribute: IC50. Fill in for each entry.
- ASSAY_TEXT: Antioxidant activity assessed as H2O2 radical scavenging activity
- Format: functional
Give the value in µg/mL but do not write µg/mL after it.

Field request: IC50 | item: COc1cc2c(cc1OC)CN(CCCCN1C(=O)CCc3ccccc31)CC2 15.37

What would you report for O=C1CCc2ccccc2N1CCCCN1CCN(c2ccc(F)cc2)CC1 ? 24.04

What would you report for O=C1CCc2ccccc2N1CCCCN1CCC2(CC1)OCc1ccccc12 ? 84.56

What would you report for Cc1ccc(CN(C)CCCCn2nc(-c3ccccc3)oc2=O)c(C)c1 ? 31.44

What would you report for Cc1ccc(CN(C)CCCCN2C(=O)CCc3ccccc32)c(C)c1 ? 29.16

====

Record form. Attribute: viability at 48 h, 10 µM. Fill in for each entry.
- ASSAY_TEXT: Cytotoxicity against human Hep3B cells assessed as cell viability at 10 uM incubated for 48 hrs by MTT assay relative to control
- Assay type: cell-based, Hep 3B2
- RUN_CONDITIONS: read-out: Activity
Give the value in % but do not write % after it.

Field request: viability at 48 h, 10 µM | item: O=c1oc(-c2ccccc2)nn1CCCCN1CCC2(CC1)OCc1ccccc12 87

What would you report for Cc1ccc(CN(C)CCCCN2C(=O)CCc3ccccc32)c(C)c1 ? 77

What would you report for O=C1CCc2ccccc2N1CCCCN1CCN(C2CCCCC2)CC1 ? 106

What would you report for O=C1CCc2ccccc2N1CCCCN1CCN(c2ccc(F)cc2)CC1 ? 99
